target: Grb2 SH2 (UniProt P62993); assay: SH2 binding enrichment of the phosphorylated peptide, bacterial display (enrichment ratio); higher = better substrate or ligand; peptides without Tyr show the background
parameter: SH2 binding enrichment

Some solved cases for reference:
# residueString, measuredNumber
rows = [
    ("HVSISYDIPPT [GAB1_Y307]", 0.688),
    ("VAFLYYKSIGP [ADGRL4_Y302_V300L]", 0.771),
]

(1) MSSHHCDYKKY [ZNF445_Y428_Y428C]
(2) PSDPSYEDTRE [BMPR1A_Y467_M470T]
Field: entry with larger SH2 binding enrichment (options 1 / 2 ). Mark your selection by writing its label.
2
(2: 1.77, 1: 0.962)

(P) DLQDEYDFKRK [STAT1_Y170_C174R]
(Q) FSNKLYFQLEQ [PDPR_Y109_YF]
Compare the recorded SH2 binding enrichment of P and Q ; state which is larger. Response format: the label of the selected entry.
P
(P: 0.902, Q: 0.626)

(P) HRERPYGGGGG [FUS_Y526_R521H]
(Q) QNTGDYFDLFG [PTPN11_Y62_YF]
Just curious, which one has the larger SH2 binding enrichment reading, P or Q ? Provide the label of your selected option as the answer.
P

---

Here the recorded phosphorylation enrichment is given for each entry.
molecular target: Hck (UniProt P08631); assay: phosphorylation enrichment, bacterial display (enrichment ratio); higher = better substrate or ligand; peptides without Tyr show the background
Sequence (P08631 whole entry, looked up): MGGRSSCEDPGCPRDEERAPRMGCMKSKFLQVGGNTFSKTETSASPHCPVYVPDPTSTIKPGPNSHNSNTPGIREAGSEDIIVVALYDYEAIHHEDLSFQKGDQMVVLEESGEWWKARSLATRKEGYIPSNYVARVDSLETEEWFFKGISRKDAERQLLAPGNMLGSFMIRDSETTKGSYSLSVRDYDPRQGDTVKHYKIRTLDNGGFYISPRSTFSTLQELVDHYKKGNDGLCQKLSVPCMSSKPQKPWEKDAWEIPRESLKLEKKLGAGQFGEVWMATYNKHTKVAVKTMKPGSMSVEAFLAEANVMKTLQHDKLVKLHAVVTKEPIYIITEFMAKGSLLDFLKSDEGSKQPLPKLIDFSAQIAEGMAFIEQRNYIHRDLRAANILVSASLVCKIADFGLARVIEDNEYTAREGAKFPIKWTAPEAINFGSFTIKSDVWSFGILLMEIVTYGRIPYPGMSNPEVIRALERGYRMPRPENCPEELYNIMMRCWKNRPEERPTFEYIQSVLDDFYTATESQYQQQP
API doc: respond with a numeric literal and nothing else, no unit.

Solved cases below.
# residueString, parameter, measuredNumber
rows = [
    ("AEVDTYCRHNY [HLA-DRB1_Y107_A103E]", "phosphorylation enrichment", 0.505),
    ("DTQNSYGCATS [TSC1_Y304]", "phosphorylation enrichment", 0.498),
    ("AFPVSYSSSGA [RET_Y687]", "phosphorylation enrichment", 0.303),
]

Endpoint output: phosphorylation enrichment of KKRSSYGNSSD [SELENOK_Y52_R50S] . Value?
0.475

---

Form field: phosphorylation enrichment (one value per entry).
target: FGFR1 (UniProt P11362); test: phosphorylation enrichment, bacterial display (enrichment ratio); higher = better substrate or ligand; peptides without Tyr show the background
Sequence (P11362 whole entry, looked up): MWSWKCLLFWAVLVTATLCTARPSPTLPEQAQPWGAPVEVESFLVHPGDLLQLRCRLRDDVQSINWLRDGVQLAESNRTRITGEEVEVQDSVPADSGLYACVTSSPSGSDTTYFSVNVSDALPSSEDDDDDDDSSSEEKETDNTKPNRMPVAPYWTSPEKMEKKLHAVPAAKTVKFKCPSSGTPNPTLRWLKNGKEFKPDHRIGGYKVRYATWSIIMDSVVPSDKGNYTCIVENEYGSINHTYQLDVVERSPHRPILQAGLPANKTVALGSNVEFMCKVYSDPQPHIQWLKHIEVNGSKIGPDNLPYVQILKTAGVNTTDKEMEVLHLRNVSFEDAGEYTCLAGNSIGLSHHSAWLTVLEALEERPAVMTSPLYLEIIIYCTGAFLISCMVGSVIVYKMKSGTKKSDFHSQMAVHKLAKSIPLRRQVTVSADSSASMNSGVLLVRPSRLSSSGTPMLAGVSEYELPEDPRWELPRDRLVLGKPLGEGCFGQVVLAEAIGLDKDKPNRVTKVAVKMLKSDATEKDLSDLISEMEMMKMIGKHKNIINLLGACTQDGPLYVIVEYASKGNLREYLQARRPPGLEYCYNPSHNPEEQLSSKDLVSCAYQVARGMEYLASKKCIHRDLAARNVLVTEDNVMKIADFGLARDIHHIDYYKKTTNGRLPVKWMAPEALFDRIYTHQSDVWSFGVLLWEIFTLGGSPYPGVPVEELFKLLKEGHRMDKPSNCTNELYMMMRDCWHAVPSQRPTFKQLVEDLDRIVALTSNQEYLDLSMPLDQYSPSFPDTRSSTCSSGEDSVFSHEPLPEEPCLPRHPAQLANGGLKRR
// return a plain number; no unit text

# residueString, phosphorylation enrichment
records = [
    ("RLQAAYNLVKR [PFKM_Y103_R100Q]", 0.525),
    ("RHTRSYDFMEG [FGF7_Y56_YF]", 0.591),
    ("VHSGTYQVTVR [MYBPC3_Y1043]", 0.404),
    ("NPQKSYFILLY [WAS_Y83_R86L]", 1.79),
    ("KKRSSYGNSSD [SELENOK_Y52_R50S]", 0.386),
    ("SHSMRYFFTAV [HLA-C_Y31_D33F]", 0.62),
    ("HYEFKYVINAI [MAOA_Y268_C266F]", 0.471),
    ("YRRITYHNWRH [PDE6B_Y556]", 0.386),
]

Would you kindly share the measured phosphorylation enrichment for RQGQAYRGQRV [TSHR_Y706_A703G] ?
0.452

---

target: Grb2 SH2 (UniProt P62993); assay: SH2 binding enrichment of the phosphorylated peptide, bacterial display (enrichment ratio); higher = better substrate or ligand; peptides without Tyr show the background
parameter: SH2 binding enrichment

Completed entries (count: 4):
# residueString, measuredNumber
records = [
    ("SVVVPYEPAEV [TP53_Y220_P223A]", 0.81),
    ("TYAVSYLPDMS [FLNC_Y1602_T1599A]", 0.809),
    ("SVMVPYEPPEV [TP53_Y220_V217M]", 0.786),
    ("VRALTYCDLHK [KCNH2_Y827]", 0.885),
]

(a) SLIDGYYRLTA [JAK2_Y372]
(b) PFSNPYENSLI [EPOR_Y489_YF]
Consider a and b . Which of these has its SH2 binding enrichment at a higher number? Record your answer as the label of the chosen record.
b
(b: 15.5, a: 0.986)

(a) SVTCTYCPALN [TP53_Y126_S127C]
(b) QELRRYLKSGV [MICA_Y194]
Hi there! Just curious which has the higher SH2 binding enrichment between a and b . Your answer should be the label attached to the chosen record.
a

---

biological target: FGFR3 (UniProt P22607); assay: phosphorylation enrichment, bacterial display (enrichment ratio); higher = better substrate or ligand; peptides without Tyr show the background
Sequence (P22607 whole entry, looked up): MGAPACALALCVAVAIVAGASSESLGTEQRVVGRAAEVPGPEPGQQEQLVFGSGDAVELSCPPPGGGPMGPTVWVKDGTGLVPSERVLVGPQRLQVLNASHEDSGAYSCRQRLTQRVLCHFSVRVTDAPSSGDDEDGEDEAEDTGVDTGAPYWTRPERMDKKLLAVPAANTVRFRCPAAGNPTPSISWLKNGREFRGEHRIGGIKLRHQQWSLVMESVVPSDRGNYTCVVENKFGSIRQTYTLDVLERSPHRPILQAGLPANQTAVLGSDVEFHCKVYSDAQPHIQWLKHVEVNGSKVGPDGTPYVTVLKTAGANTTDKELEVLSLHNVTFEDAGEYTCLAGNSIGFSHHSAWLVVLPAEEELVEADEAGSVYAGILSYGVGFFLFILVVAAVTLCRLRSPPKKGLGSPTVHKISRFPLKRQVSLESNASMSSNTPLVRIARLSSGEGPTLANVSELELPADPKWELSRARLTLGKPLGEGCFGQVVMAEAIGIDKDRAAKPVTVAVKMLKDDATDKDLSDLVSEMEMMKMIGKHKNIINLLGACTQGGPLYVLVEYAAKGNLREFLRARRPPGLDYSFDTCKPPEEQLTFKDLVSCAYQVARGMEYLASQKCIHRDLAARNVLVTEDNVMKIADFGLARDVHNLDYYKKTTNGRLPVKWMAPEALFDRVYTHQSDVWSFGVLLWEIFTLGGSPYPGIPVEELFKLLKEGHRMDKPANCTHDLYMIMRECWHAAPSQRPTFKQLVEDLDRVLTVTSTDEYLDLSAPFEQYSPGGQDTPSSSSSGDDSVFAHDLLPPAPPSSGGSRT
Each item that follows carries a reported phosphorylation enrichment.
Could you keep your reply to the number by itself?

Example entries begin here.
# residueString, phosphorylation enrichment
measured = [
    ("NDHHFYLEGTL [ALDOB_Y223_V222F]", 0.696),
    ("ALAHEYHGGGG [HBB_Y146_K145E]", 0.361),
    ("SLLLSYFLIKW [NUP160_Y773_P768S_YF]", 1.08),
    ("AFAEVYEGQVS [ALK_Y1131_G1128A]", 0.695),
    ("FECKWYIPLTD [BCR_Y756_D752E_YF]", 1),
]

I am curious: what phosphorylation enrichment value has been reported for EVRTQYEEIAQ [KRT76_Y361_A359T] ?
0.726

Fill blank: measured phosphorylation enrichment of the sequence REQREYLEQLN [CCDC88B_Y1277_D1279E] is ____.
0.755

Fill in the blank: the reported phosphorylation enrichment of EQMLEYMGQLQ [CFAP45_Y289_E291G] is ____.
0.595

Given the entry HDRGNYVQLNM [RECQL4_Y353_R355Q] , report its measured phosphorylation enrichment.
1.35

Reported phosphorylation enrichment, sequence CKLCQYYLDHL [ATRX_Y1849_Y1847C] : ____
0.613

Which phosphorylation enrichment reading was recorded for the sequence LLSVAYKNVVG [YWHAG_Y49] ?
0.709

---

target: Fyn (UniProt P06241); test: phosphorylation enrichment, bacterial display (enrichment ratio); higher = better substrate or ligand; peptides without Tyr show the background
Sequence (P06241 whole entry, looked up): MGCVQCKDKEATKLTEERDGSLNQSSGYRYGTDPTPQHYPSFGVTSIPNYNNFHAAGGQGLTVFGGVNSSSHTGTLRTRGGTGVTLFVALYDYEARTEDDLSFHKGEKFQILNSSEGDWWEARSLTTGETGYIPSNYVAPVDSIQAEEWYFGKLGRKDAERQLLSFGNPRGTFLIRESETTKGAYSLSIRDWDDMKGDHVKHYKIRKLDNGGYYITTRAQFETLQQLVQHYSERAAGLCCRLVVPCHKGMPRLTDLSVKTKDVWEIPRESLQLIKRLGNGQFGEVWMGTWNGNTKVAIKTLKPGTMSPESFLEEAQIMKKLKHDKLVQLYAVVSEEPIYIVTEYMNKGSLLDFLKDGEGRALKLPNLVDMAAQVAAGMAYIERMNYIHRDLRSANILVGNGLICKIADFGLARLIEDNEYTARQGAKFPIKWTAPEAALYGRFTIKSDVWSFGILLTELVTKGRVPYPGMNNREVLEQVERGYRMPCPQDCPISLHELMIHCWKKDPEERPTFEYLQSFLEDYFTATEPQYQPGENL
Here the recorded phosphorylation enrichment is given for each entry.
Answer with a bare number; do not write a unit.

In the examples that follow, each entry is paired with its recorded phosphorylation enrichment.
# residueString, parameter, measuredNumber
records = [
    ("SEEVTYATLTF [CLEC12B_Y7]", "phosphorylation enrichment", 6.58),
    ("DEEFEYMNRRR [ERBB3_Y1199_YF]", "phosphorylation enrichment", 0.643),
    ("LAETSYVIVLE [MAGEA1_Y276_K278I]", "phosphorylation enrichment", 0.791),
]

Provide the documented phosphorylation enrichment with Fyn (UniProt P06241) as the system for FENGEYIIRQG [PRKG1_Y247_YF]
0.572

What measured phosphorylation enrichment is associated with RRGLLYDSDEE [MCM2_Y137] on Fyn (UniProt P06241)?
1.29

---

biological target: EPHB1 (UniProt P54762); assay: phosphorylation enrichment, bacterial display (enrichment ratio); higher = better substrate or ligand; peptides without Tyr show the background
Sequence (P54762 whole entry, looked up): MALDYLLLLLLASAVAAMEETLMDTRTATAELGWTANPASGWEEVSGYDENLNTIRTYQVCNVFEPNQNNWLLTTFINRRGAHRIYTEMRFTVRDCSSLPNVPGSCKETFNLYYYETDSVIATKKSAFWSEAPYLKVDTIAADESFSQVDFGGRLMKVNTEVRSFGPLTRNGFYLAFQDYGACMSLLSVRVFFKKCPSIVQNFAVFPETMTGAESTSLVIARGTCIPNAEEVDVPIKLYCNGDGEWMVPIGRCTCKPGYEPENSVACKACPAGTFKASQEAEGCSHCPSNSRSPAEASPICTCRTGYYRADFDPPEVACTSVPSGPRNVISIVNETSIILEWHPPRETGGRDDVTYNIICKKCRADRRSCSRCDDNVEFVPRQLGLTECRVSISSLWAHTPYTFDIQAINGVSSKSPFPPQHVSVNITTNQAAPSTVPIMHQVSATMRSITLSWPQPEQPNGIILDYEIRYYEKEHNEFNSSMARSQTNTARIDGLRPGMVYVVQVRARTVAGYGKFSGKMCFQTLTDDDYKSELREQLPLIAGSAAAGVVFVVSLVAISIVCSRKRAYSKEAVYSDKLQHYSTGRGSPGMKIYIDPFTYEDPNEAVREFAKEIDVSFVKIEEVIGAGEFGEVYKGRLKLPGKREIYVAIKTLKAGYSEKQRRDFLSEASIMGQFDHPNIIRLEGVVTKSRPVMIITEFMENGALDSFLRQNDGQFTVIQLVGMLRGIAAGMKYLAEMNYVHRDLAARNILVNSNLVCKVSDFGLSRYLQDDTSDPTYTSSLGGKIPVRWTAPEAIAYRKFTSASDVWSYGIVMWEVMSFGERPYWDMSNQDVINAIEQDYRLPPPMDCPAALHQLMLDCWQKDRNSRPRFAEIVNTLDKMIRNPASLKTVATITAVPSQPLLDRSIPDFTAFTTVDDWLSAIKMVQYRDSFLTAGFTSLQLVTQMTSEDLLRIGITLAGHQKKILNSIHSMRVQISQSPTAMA
parameter: phosphorylation enrichment
Lab note: write the figure by itself, no unit.

# residueString, experimentalTarget, phosphorylation enrichment
rows = [
    ("SDGHEYIFVDR [PDGFRB_Y579_P584R_YF]", "EPHB1 (UniProt P54762)", 0.427),
    ("VASMFYTLVIP [OR8K3_Y277_I275M]", "EPHB1 (UniProt P54762)", 1.13),
    ("QPDLLYDHIQP [TRRAP_Y862_F860L]", "EPHB1 (UniProt P54762)", 15.2),
]

What does the data say about its phosphorylation enrichment? Entry: ADLLVYIKALN [HPRT1_Y81_D80V]
0.644

Could you share which phosphorylation enrichment value was measured for TGYRPYVCPFD [YY1_Y383_D380Y] ?
0.753

---

target: Hck (UniProt P08631); experiment: phosphorylation enrichment, bacterial display (enrichment ratio); higher = better substrate or ligand; peptides without Tyr show the background
parameter: phosphorylation enrichment
Respond numerically, and do not add a unit to the figure.

Below: 2 sequences and their reported phosphorylation enrichment.
# residueString, measuredNumber
rows = [
    ("EVGHVYLFLQP [ITGA2B_Y360_R358H]", 0.5),
    ("MWGSDYVHLSR [MAP3K4_Y582_Q584H]", 0.486),
]

Next sequence, phosphorylation enrichment to be filled in.
Could you tell me which phosphorylation enrichment is on file for KFACSYTPVKA [FLNB_Y708_T703K_YF] ?
0.509

---

biological target: Grb2 SH2 (UniProt P62993); test: SH2 binding enrichment of the phosphorylated peptide, bacterial display (enrichment ratio); higher = better substrate or ligand; peptides without Tyr show the background
parameter: SH2 binding enrichment

# residueString, SH2 binding enrichment
measured = [
    ("SVTCTGSPALN [TP53_Y126_Y126G]", 0.796),
    ("DLLMQYPKAQG [FAM83C_Y600]", 0.882),
    ("VGQRPYRPLPE [REEP3_Y170_Q171R]", 0.957),
    ("RAIGHYSATSK [FAM120A_Y328_Y327H]", 0.702),
    ("RHLQEYQDPLN [GFAP_Y349_L352P]", 0.949),
    ("LKEIRYPPYTD [ALDH3B2_Y362_H361R]", 0.883),
    ("HGAKVYIDPFT [EPHB4_Y590_T587A]", 0.712),
    ("LSQQVYRVNLS [FAT4_Y480_F475L]", 0.764),
    ("TEAEPYYCSLR [NPHS1_Y1138_R1140C]", 0.893),
    ("HSLLQYGGSAN [ANK1_Y624_R619H]", 0.862),
    ("TPSGNYVACGG [GNB1_Y111_A106T]", 1.14),
    ("SSQILYKLEQS [THADA_Y701_V699I]", 1),
    ("MPQNEYIELHR [NSA2_Y6]", 0.808),
    ("RLAKRYLIWEC [SCN5A_Y694_Q692K]", 0.911),
    ("NCFKFYMSDDI [ATRX_Y204_YF]", 0.973),
    ("VSFDEYRFRSF [CFTR_Y515_V520F_YF]", 0.834),
    ("AAPAAHDAADT [GAMT_Y27_Y27H]", 1),
    ("WQQQSYLASGI [CTNNB1_Y30_D32A]", 0.822),
    ("MKKMHYVDPDR [ST3GAL5_Y99_H104R]", 0.879),
]

Origin of the recorded values: the supplement of paper PMC10065799
